Assay name: Thermodynamic Solubility (Ts) Assay in Fasted State Simulated Intestinal Fluid (FaSSIF)
Assay type: physicochemical
Cond: thermodynamic from solid, FaSSIF pH 6.5, shake flask, 25° C., HPLC-UV
Experimental: The solubilities of various compounds of formula (I) were determined using a thermodynamic solubility assay. The thermodynamic solubility assay employed the shake flask method followed by HPLC-UV analysis. The following stepwise procedure was followed: […]
I'd appreciate it if you could supply solubility at 24 h values for the items below.

solubility at 24 h measured on CO[C@H](C)c1c(Nc2ccc([C@H](N(C)C(=O)C3CCN(C(C)=O)CC3)C(F)(F)F)cc2)cnc2nc(Cl)nn12 = 250 to 1750 µg/mL

solubility at 24 h measured on CO[C@@H](C)c1c(Nc2ccc([C@H](N(C)C(=O)C3CCS(=O)(=O)CC3)C(F)(F)F)cc2)cnc2nc(Cl)nn12 = 250 to 1750 µg/mL

solubility at 24 h measured on CC(=O)N1CCC(C(=O)N(C)[C@@H](c2ccc(Nc3cnc4nc(Cl)nn4c3C(C)C)cc2)C(F)(F)F)CC1 = < 250 µg/mL

solubility at 24 h measured on CO[C@@H](C)c1c(Nc2ccc([C@H](N(C)C(=O)C3CCC(F)(F)CC3)C(F)(F)F)cc2)cnc2nc(Cl)nn12 = < 250 µg/mL

solubility at 24 h measured on CO[C@@H](C)c1c(Nc2ccc([C@H](N(C)C(=O)[C@H]3CC[C@H](C(=O)O)CC3)C(F)(F)F)cc2)cnc2nc(Cl)nn12 = > 1750 µg/mL

solubility at 24 h measured on CO[C@@H](C)c1c(Nc2ccc([C@H](N(C)C(=O)[C@H]3CC[C@H](C(=O)N(C)C)CC3)C(F)(F)F)cc2)cnc2nc(Cl)nn12 = 250 to 1750 µg/mL

Hello, the source for this data is patent US20230391781A1, in case you need it.
